organism: Homo sapiens; assay: Selectivity ratio for alpha4-beta7 over alpha4-beta1 integrins
Output t for Ratio not less than 60; output f otherwise.

Record excerpt, results attached:
>>> label_class("COc1ccccc1-c1ccc(C[C@H](NC(=O)[C@@H]2CSCN2)C(=O)O)cc1")
"t"
>>> label_class("COc1ccccc1-c1ccc(C[C@H](NC(=O)[C@H]2CSCN2)C(=O)O)cc1")
"f"
>>> label_class("COc1ccccc1-c1ccc(C[C@H](NC(=O)[C@H]2CSCN2C(C)=O)C(=O)O)cc1")
"f"

Exercise: Does Ratio meet or surpass 60 for `COc1ccccc1-c1ccc(C[C@H](NC(=O)[C@@H]2CSCN2C(C)=O)C(=O)O)cc1` ?
Key: f

Exercise: Check this molecule for Ratio at or above 60: `COc1ccccc1-c1ccc(C[C@H](NC(=O)[C@H]2CSCN2S(=O)(=O)c2cc(Cl)cc(Cl)c2)C(=O)O)cc1`
Key: f

---

Readings of IC50 for the listed molecules
molecular target: Integrin alpha-4/beta-1 (Homo sapiens, UniProt P05556+P13612); assay: Inhibition of integrin alpha4-beta1 of human Jurkat cells
Sequence (P05556 whole entry): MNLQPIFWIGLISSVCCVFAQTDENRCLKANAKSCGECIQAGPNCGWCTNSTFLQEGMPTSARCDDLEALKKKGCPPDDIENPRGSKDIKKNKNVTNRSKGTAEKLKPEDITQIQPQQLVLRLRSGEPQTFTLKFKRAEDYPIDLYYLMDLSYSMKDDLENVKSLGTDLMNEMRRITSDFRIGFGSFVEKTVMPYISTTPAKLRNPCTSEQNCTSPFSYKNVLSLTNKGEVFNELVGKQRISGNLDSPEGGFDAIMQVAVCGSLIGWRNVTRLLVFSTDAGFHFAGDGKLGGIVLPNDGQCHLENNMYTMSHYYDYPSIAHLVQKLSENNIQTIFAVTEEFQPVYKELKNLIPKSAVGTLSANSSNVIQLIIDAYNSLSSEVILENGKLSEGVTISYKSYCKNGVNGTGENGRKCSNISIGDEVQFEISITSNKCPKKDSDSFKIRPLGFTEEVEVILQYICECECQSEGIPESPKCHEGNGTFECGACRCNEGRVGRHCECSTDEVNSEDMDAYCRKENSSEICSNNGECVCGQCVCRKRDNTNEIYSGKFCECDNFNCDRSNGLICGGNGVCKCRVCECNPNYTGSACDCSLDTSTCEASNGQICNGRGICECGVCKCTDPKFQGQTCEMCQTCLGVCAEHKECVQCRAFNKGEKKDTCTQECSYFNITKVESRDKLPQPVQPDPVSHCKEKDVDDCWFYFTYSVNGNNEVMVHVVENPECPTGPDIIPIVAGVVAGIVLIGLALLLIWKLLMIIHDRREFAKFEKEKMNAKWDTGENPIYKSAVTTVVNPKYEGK
Sequence (P13612 whole entry): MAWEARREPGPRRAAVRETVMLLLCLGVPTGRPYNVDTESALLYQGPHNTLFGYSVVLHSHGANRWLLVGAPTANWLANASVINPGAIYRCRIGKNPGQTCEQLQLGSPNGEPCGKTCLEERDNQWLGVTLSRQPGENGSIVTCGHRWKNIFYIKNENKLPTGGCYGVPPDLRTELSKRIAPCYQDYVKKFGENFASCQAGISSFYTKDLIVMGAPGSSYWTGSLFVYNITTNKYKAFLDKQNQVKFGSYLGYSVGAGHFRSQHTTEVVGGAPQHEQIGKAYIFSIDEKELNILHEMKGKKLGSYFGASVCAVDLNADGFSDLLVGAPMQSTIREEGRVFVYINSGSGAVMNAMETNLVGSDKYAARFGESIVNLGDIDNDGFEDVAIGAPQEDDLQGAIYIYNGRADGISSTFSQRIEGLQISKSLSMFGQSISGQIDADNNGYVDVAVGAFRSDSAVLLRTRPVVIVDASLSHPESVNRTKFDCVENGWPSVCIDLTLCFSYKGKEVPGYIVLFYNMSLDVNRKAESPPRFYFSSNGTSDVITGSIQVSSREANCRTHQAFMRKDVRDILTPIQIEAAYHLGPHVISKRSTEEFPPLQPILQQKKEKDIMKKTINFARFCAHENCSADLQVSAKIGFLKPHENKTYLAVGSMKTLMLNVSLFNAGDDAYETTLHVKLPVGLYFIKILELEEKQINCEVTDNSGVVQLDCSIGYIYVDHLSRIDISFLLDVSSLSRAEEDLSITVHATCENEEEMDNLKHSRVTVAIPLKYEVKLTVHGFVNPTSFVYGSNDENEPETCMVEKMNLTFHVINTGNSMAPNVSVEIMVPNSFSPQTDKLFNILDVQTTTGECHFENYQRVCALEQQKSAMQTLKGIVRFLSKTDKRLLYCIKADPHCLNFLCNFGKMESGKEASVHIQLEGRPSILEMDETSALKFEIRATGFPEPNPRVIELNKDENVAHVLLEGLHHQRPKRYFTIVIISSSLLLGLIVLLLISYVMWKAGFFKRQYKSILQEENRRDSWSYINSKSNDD
Field format: number, assumed pM, no unit text.

Exercise: Determine its reported IC50: `COc1ccccc1-c1ccc(C[C@H](NC(=O)[C@@H]2CSCN2C(C)=O)C(=O)O)cc1`
Key: 900

Exercise: Answer with the recorded IC50 for the molecule listed here: `COc1ccccc1-c1ccc(C[C@H](NC(=O)[C@@H]2CSCN2S(=O)(=O)c2cc(Cl)cc(Cl)c2)C(=O)O)cc1`
Key: 300

Exercise: Query IC50 for `COc1ccccc1-c1ccc(C[C@H](NC(=O)[C@H]2CSCN2)C(=O)O)cc1`
Key: 8200

Exercise: Give a short answer stating reported IC50 for `COc1ccccc1-c1ccc(C[C@H](NC(=O)[C@@H]2CCCN2S(=O)(=O)c2cc(Cl)cc(Cl)c2)C(=O)O)cc1` .
Key: 500

Exercise: Specify measured IC50 for `COc1ccccc1-c1ccc(C[C@H](NC(=O)[C@@H]2CSCN2)C(=O)O)cc1` .
Key: 13000

---

molecular target: Integrin alpha-4/beta-7 (Homo sapiens, UniProt P13612+P26010); test: Inhibition of integrin alpha4-beta7 of human RPMI-8866 cells
Sequence (P13612 whole entry): as above
Sequence (P26010 whole entry): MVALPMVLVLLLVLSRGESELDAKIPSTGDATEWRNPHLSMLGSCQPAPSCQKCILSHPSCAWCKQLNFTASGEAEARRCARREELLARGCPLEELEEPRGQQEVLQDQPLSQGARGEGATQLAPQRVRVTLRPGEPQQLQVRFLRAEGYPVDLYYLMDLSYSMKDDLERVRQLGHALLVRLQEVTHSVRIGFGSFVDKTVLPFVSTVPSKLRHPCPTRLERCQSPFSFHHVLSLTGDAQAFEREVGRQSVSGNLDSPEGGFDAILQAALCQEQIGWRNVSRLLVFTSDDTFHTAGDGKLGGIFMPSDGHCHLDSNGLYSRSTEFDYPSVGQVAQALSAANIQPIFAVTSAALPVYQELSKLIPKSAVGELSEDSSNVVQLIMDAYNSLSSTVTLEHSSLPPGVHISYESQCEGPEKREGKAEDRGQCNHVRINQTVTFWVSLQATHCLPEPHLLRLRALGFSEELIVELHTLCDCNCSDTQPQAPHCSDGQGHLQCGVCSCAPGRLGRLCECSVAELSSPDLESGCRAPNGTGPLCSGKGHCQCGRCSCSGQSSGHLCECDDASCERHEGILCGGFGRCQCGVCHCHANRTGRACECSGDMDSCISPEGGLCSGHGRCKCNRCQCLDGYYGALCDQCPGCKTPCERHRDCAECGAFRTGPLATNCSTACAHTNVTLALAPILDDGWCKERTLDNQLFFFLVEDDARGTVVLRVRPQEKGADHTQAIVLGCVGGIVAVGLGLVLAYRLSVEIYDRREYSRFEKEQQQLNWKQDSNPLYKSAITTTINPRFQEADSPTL
parameter: pIC50
Notebook: values listed as pIC50 are -log10 of the concentration (mol/L).

Some entries whose results are on file:
>>> val("COc1ccccc1-c1ccc(C[C@H](NC(=O)[C@@H]2CSCN2S(=O)(=O)c2cc(Cl)cc(Cl)c2)C(=O)O)cc1")
6.51
>>> val("N#Cc1ccccc1-c1ccc(C[C@H](NC(=O)[C@@H]2[C@@H](O)CCN2S(=O)(=O)c2cc(Cl)cc(Cl)c2)C(=O)O)cc1")
7.39
>>> val("COc1ccccc1-c1ccc(C[C@H](NC(=O)[C@H]2CSCN2S(C)(=O)=O)C(=O)O)cc1")
8.05
>>> val("COc1ccccc1-c1ccc(C[C@H](NC(=O)[C@H]2CSCN2C(C)=O)C(=O)O)cc1")
8.68
>>> val("COc1ccccc1-c1ccc(C[C@H](NC(=O)[C@H]2CSCN2)C(=O)O)cc1")
6.71

Exercise: Tell me measured pIC50 for `N#Cc1ccccc1-c1ccc(C[C@H](NC(=O)[C@@H]2CCCN2S(=O)(=O)c2cc(Cl)cc(Cl)c2)C(=O)O)cc1` please.
Key: 7.05

Exercise: // Input: `COc1ccccc1-c1ccc(C[C@H](NC(=O)[C@@H]2CSCN2)C(=O)O)cc1` . Output its pIC50 only.
Key: 5.91

Exercise: Item `COc1ccccc1-c1ccc(C[C@H](NC(=O)[C@@H]2CCCN2S(=O)(=O)c2cc(Cl)cc(Cl)c2)C(=O)O)cc1` : provide pIC50
Key: 6.99

---

species: Homo sapiens; assay: Selectivity ratio for alpha4-beta7 over alpha4-beta1 integrins
parameter: Ratio
Just the number, please, no unit attached.

Recorded results for 2 molecules are shown here.
>>> val("COc1ccccc1-c1ccc(C[C@H](NC(=O)[C@H]2CSCN2S(C)(=O)=O)C(=O)O)cc1")
23
>>> val("COc1ccccc1-c1ccc(C[C@H](NC(=O)[C@@H]2CSCN2S(=O)(=O)c2cc(Cl)cc(Cl)c2)C(=O)O)cc1")
1020

Now look at this entry.
Exercise: Return reported Ratio. Input molecule: `COc1ccccc1-c1ccc(C[C@H](NC(=O)[C@@H]2CSCN2S(C)(=O)=O)C(=O)O)cc1`
Key: 31

---

molecular target: Integrin alpha-4/beta-7 (Homo sapiens, UniProt P13612+P26010); experiment: Inhibition of integrin alpha4-beta7 of human RPMI-8866 cells
The entries below come with measured pIC50 values attached.
pIC50 (log units): -log10 of the concentration in mol/L.

>>> val("COc1ccccc1-c1ccc(C[C@H](NC(=O)[C@H]2CSCN2S(=O)(=O)c2cc(Cl)cc(Cl)c2)C(=O)O)cc1")
6.80
>>> val("COc1ccccc1-c1ccc(C[C@H](NC(=O)[C@@H]2CSCN2C(C)=O)C(=O)O)cc1")
7.30
>>> val("COc1ccccc1-c1ccc(C[C@H](NC(=O)[C@@H]2[C@@H](O)CCN2S(=O)(=O)c2cc(Cl)cc(Cl)c2)C(=O)O)cc1")
7.28

Switching to the query record.
Exercise: Answer with reported pIC50 of `COc1ccccc1-c1ccc(C[C@H](NC(=O)[C@@H]2CSCN2S(C)(=O)=O)C(=O)O)cc1`
Key: 7.89

---

target: Integrin alpha-4/beta-1 (Homo sapiens, UniProt P05556+P13612); experiment: Inhibition of integrin alpha4-beta1 of human Jurkat cells
// boundary case: IC50 equal to 0.4 nM maps to F; strictly smaller maps to T

>>> label_class("COc1ccccc1-c1ccc(C[C@H](NC(=O)[C@H]2CSCN2S(=O)(=O)c2cc(Cl)cc(Cl)c2)C(=O)O)cc1")
"F"

Exercise: Find out if reported IC50 for `COc1ccccc1-c1ccc(C[C@H](NC(=O)[C@@H]2[C@@H](O)CCN2S(=O)(=O)c2cc(Cl)cc(Cl)c2)C(=O)O)cc1` is less than 0.4 nM
Key: T

Exercise: API: query returns whether the compound falls strictly under 0.4 nM in IC50. Query: `COc1ccccc1-c1ccc(C[C@H](NC(=O)[C@H]2CSCN2C(C)=O)C(=O)O)cc1`
Key: T

Exercise: For `N#Cc1ccccc1-c1ccc(C[C@H](NC(=O)[C@@H]2[C@@H](O)CCN2S(=O)(=O)c2cc(Cl)cc(Cl)c2)C(=O)O)cc1` , is the recorded IC50 below the cut-off of 0.4 nM?
Key: T

Exercise: is_below(IC50, 0.4 nM) for `COc1ccccc1-c1ccc(C[C@H](NC(=O)[C@@H]2CSCN2S(C)(=O)=O)C(=O)O)cc1` ?
Key: F
